The values you see were collected from patent US10774051B2.

target.entity: human P2X7 receptor (Homo sapiens, UniProt Q99572, R270H/Y155H)
method.summary: Evaluation of human P2X7 receptor inhibitory activity (Yo-Pro uptake, BzATP stimulation, FLIPR TETRA)
Type: cell-based
condition: antagonistic activity for the human P2X7 receptor; read-out: IC50
Item-by-item account of IC50

Below, each entry is followed by its recorded IC50 result.
| smiles.structure | metric.name | measurement |
| --- | --- | --- |
| COc1cn(Cc2cc(F)cc(Cl)c2)c(Nc2cc(N3CCCC3=O)ccc2C)nc1=O | IC50 | 0.01 to 0.1 µM |
| Cc1cc2[nH]ncc2cc1Nc1nc(=O)c(F)cn1Cc1ccc(F)c(Cl)c1 | IC50 | 0.01 to 0.1 µM |
| COc1cn(Cc2cc(F)c(F)c(F)c2)c(Nc2cc(OC(C)C)ccc2C)nc1=O | IC50 | < 0.01 µM |
| CCc1ccc(Nc2nc(=O)c(F)cn2Cc2cc(F)cc(F)c2)c(C)c1 | IC50 | < 0.01 µM |
| Cc1cccc(Nc2nc(=O)c(F)cn2Cc2cc(F)c(F)c(F)c2)c1F | IC50 | < 0.01 µM |
| Cc1cc(Nc2nc(=O)c(F)cn2Cc2cc(F)cc(F)c2)c(C)nc1OC(F)F | IC50 | < 0.01 µM |
| COc1cc(C)c(Nc2nc(=O)c(CF)nn2Cc2cc(F)c(F)c(F)c2)cc1OC | IC50 | 0.01 to 0.1 µM |
| COc1ccc(Nc2nc(=O)c(Cl)nn2Cc2cc(F)c(F)c(F)c2)c(C)c1 | IC50 | 0.01 to 0.1 µM |

IN: Name the reported IC50 value associated with the compound COc1cn(Cc2ccccc2)c(Nc2cc(OC3CC3)ccc2C)nc1=O
OUT: 0.01 to 0.1 µM

IN: Endpoint output: IC50 of CCOc1cc(Nc2nc(=O)c(OC)cn2Cc2cc(F)c(F)c(F)c2)c(C)cc1F . Value?
OUT: < 0.01 µM

* * *

target.entity: human P2X7 receptor (Homo sapiens, UniProt Q99572, R270H/Y155H)
method.summary: Evaluation of human P2X7 receptor inhibitory activity (Yo-Pro uptake, BzATP stimulation, FLIPR TETRA)
Type: cell-based
condition: antagonistic activity for the human P2X7 receptor; read-out: IC50
metric.name: IC50

Illustrative cases are given below, each with its answer.
| smiles.structure | metric.name | measurement |
| --- | --- | --- |
| COCc1cn(Cc2cc(F)c(F)c(F)c2)c(Nc2cc(OC)c(OC)cc2C)nc1=O | IC50 | 10 to 100 nM |
| CCOc1cc(Nc2nc(=O)c(OC)cn2Cc2cc(F)c(F)c(F)c2)c(C)cc1C | IC50 | < 10 nM |
| COc1cc(C)c(Nc2nc(=O)c(OC)cn2Cc2cccc(F)c2)cc1Cl | IC50 | < 10 nM |
| Cc1nc2cc(Cl)c(Nc3nc(=O)c(F)cn3Cc3ccc(F)c(Cl)c3)cc2o1 | IC50 | < 10 nM |
| C#Cc1cc(Nc2nc(=O)c(OC)cn2Cc2cc(F)cc(F)c2)c(C)cc1F | IC50 | 10 to 100 nM |

IN: For Cc1ccc(-c2cscn2)cc1Nc1nc(=O)c(F)cn1Cc1cc(F)cc(F)c1 , what is its reported IC50?
OUT: < 10 nM

IN: Entry under review: CCOc1ccc(Nc2nc(=O)c(F)cn2Cc2cc(F)c(F)c(F)c2)c(C)c1 . Reported IC50?
OUT: < 10 nM

IN: Which IC50 value belongs to Cc1cc(C(F)F)ccc1Nc1nc(=O)c(F)cn1Cc1cc(F)c(F)c(F)c1 ?
OUT: < 10 nM

IN: Consider the molecule COc1ncccc1-c1ccc(C)c(Nc2nc(=O)c(OC)cn2Cc2cc(F)cc(F)c2)c1 and give its measured IC50.
OUT: < 10 nM

IN: May I ask what IC50 has been recorded for COc1ccc(Nc2nc(=O)c(C(=O)O)nn2Cc2cc(F)c(F)c(F)c2)c(C)c1 ?
OUT: 100 to 500 nM

* * *

As shown below, each of these compounds has a reported IC50 value.
target.entity: human P2X7 receptor (Homo sapiens, UniProt Q99572, R270H/Y155H)
method.summary: Evaluation of human P2X7 receptor inhibitory activity (Yo-Pro uptake, BzATP stimulation, FLIPR TETRA)
Assay type: cell-based
condition: 1321N1 cells stably expressing human P2X7 receptor; BzATP stimulation, Yo-Pro uptake; read-out: IC50 (antagonistic activity for the human P2X7 receptor)
Unit nM implied. Number only.

The examples below pair each entry with its known result.
| compound | measurement |
| --- | --- |
| Cc1nc2cc(C)c(Nc3nc(=O)c(C)nn3Cc3cc(F)c(F)c(F)c3)cc2s1 | 10 |
| Cc1cc2c(cc1Nc1nc(=O)c(F)cn1Cc1ccc(F)cc1)OCCO2 | 13 |
| Cc1cc(C)c(Nc2nc(=O)c(C(=O)O)cn2Cc2ccccc2)cc1C | 91 |
| COc1cn(Cc2cc(F)cc(F)c2)c(Nc2cc3ncccc3cc2C)nc1=O | 110 |

IN: Return reported IC50; argument: Cc1c(Nc2nc(=O)cnn2Cc2cc(F)c(F)c(F)c2)ccc2[nH]ccc12
OUT: 3

* * *

target.entity: human P2X7 receptor (Homo sapiens, UniProt Q99572, R270H/Y155H)
method.summary: Evaluation of human P2X7 receptor inhibitory activity (Yo-Pro uptake, BzATP stimulation, FLIPR TETRA)
Format: cell-based
condition: antagonistic activity for the human P2X7 receptor; read-out: IC50
metric.name: IC50

// below: answered compounds
| smiles.structure | IC50 |
| --- | --- |
| COc1cc(Nc2nc(=O)c(OC)cn2Cc2cc(F)c(F)c(F)c2)c(C)cc1C | < 10 nM |
| COc1cn(Cc2ccccc2)c(Nc2cc(-c3ccccc3)ccc2C)nc1=O | 10 to 100 nM |
| CCc1cc(OC)c(OC)cc1Nc1nc(=O)c(F)cn1Cc1cc(F)c(F)c(F)c1 | < 10 nM |
| COc1cn(Cc2ccc(F)c(F)c2)c(Nc2cc3ncccc3cc2C)nc1=O | 10 to 100 nM |
| COc1cn(Cc2cc(F)cc(F)c2)c(Nc2cc(Cl)cc3[nH]ccc23)nc1=O | 10 to 100 nM |
| COc1cn(Cc2ccc(F)c(F)c2)c(Nc2cc(-c3cscn3)ccc2C)nc1=O | < 10 nM |
| Cc1cc(C)c(Nc2nc(=O)c(F)cn2Cc2cc(F)c(F)c(F)c2)cc1CO | < 10 nM |
| COc1ccc(Nc2nc(=O)cnn2Cc2cc(F)c(F)c(F)c2)c(C)c1 | < 10 nM |

IN: Given the compound CCc1cc2c(cc1Nc1nc(=O)c(OC)cn1Cc1ccc(F)c(Cl)c1)OCCO2 , what is its reported IC50?
OUT: 10 to 100 nM

* * *

target.entity: human P2X7 receptor (Homo sapiens, UniProt Q99572, R270H/Y155H)
method.summary: Evaluation of human P2X7 receptor inhibitory activity (Yo-Pro uptake, BzATP stimulation, FLIPR TETRA)
Format: cell-based
condition: 1321N1 cells stably expressing human P2X7 receptor; BzATP stimulation, Yo-Pro uptake; read-out: IC50 (antagonistic activity for the human P2X7 receptor)
Below, each of the compounds is paired with its reported IC50 value.
Provide only the numeric value, understood in µM.

Recorded IC50, per entry:
| compound | target.entity | measurement |
| --- | --- | --- |
| COc1cc(Cn2cc(OC)c(=O)nc2Nc2cccc(Cl)c2C)ccc1F | human P2X7 receptor (Homo sapiens, UniProt Q99572, R270H/Y155H) | 0.1 |
| COc1cn(Cc2cc(F)c(F)c(F)c2)c(Oc2cc(-c3ncco3)ccc2C)nc1=O | human P2X7 receptor (Homo sapiens, UniProt Q99572, R270H/Y155H) | 0.23 |

IN: Would you mind telling me what IC50 value was observed for COc1cn(Cc2ccccc2)c(Nc2cc3[nH]ccc3cc2C)nc1=O ?
OUT: 0.007

IN: Which IC50 reading was recorded for the compound COc1cn(Cc2cc(F)c(F)c(F)c2)c(Nc2ccc3[nH]ccc3c2C)nc1=O ?
OUT: 0.004

* * *

Measured IC50, listed per entry.
target.entity: human P2X7 receptor (Homo sapiens, UniProt Q99572, R270H/Y155H)
method.summary: Evaluation of human P2X7 receptor inhibitory activity (Yo-Pro uptake, BzATP stimulation, FLIPR TETRA)
Format: cell-based
condition: 1321N1 cells stably expressing human P2X7 receptor; BzATP stimulation, Yo-Pro uptake; read-out: IC50 (antagonistic activity for the human P2X7 receptor), class symbol

# annotated cases, reported IC50 shown
| smiles.structure | measurement |
| --- | --- |
| COc1cn(Cc2ccccc2)c(NCc2c(C)cccc2C)nc1=O | 100 to 500 nM |
| COc1cn(Cc2ccccc2)c(Nc2ccccc2C(F)(F)F)nc1=O | 500 to 1000 nM |
| Cc1cccc(Nc2nc(=O)c(F)cn2Cc2ccccc2)c1C | 10 to 100 nM |
| COc1cn(Cc2ccc(F)c(Cl)c2)c(Nc2cc(C)c(OC(F)F)cc2C)nc1=O | < 10 nM |

IN: Form field - read-out: IC50; system: human P2X7 receptor (Homo sapiens, UniProt Q99572, R270H/Y155H); submitted item: Cc1c(Cl)cccc1Nc1nc(=O)c(C)cn1Cc1ccccc1
OUT: 10 to 100 nM

IN: Hello, I am looking for reported IC50 with human P2X7 receptor (Homo sapiens, UniProt Q99572, R270H/Y155H) for Cc1c(Cl)cccc1Nc1nc(=O)c(C(=O)NCC(F)(F)F)cn1Cc1ccccc1 . Could you help?
OUT: 500 to 1000 nM
